Molecular target: T1, murine IL-11 (mouse, UniProt P47873 22-199)
T1 sequence: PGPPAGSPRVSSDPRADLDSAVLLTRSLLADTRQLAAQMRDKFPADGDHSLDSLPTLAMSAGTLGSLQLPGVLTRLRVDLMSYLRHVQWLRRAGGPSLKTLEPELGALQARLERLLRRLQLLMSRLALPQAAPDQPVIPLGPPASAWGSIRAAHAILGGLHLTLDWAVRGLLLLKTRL
Test: cell-based or functional assay
REPORTED_METRIC: RGA Efficacy (%)
# output: bare number, implied unit %

Query :: Query (binder): TPP-29399 (antibody, human IgG1, V domains shown) VH: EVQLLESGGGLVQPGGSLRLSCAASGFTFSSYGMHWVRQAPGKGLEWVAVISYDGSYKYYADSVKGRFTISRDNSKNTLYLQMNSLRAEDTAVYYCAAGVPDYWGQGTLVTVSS VL: QSVLTQPPSASGTPGQRVTISCSGSSSNIGSDYDVHWYQQLPGTAPKLLIYSNNERPSGVPDRFSGSKSGTSASLAISGLRSEDEADYYCAAWDSSLSGPVFGGGTKLTVL ; field requested: RGA Efficacy (%)
Result :: 90

Query :: For TPP-29389 (antibody, human IgG1, V domains shown) VH: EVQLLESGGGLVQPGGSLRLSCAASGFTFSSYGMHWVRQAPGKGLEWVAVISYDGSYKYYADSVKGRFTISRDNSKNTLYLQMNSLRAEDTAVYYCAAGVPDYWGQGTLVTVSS VL: QSVLTQPPSASGTPGQRVTISCSGSSSNIGSYYDVHWYQQLPGTAPKLLIYSNEERPSGVPDRFSGSKSGTSASLAISGLRSEDEADYYCAAWDPSLYGPVFGGGTKLTVL , what is its reported RGA Efficacy (%)?
Result :: 97.4

Query :: Please give the measured RGA Efficacy (%) for this binder: TPP-29381 (antibody, human IgG1, V domains shown) VH: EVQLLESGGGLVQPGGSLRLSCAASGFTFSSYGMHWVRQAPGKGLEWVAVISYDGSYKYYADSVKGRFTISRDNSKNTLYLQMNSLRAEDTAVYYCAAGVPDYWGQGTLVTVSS VL: QSVLTQPPSASGTPGQRVTISCSGSSSNIGSDYDVHWYQQLPGTAPKLLIYSNNERPSGVPDRFSGSKSGTSASLAISGLRSEDEADYYCSAWDSSLSGPVFGGGTKLTVL
Result :: 94.8

Query :: # RGA Efficacy (%) lookup, item TPP-29383 (antibody, human IgG1, V domains shown) VH: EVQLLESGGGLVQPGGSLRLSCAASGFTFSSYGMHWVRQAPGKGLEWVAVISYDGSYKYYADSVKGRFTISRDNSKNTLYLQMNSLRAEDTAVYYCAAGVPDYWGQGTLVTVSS VL: QSVLTQPPSASGTPGQRVTISCSGSSSNIGSDLDVHWYQQLPGTAPKLLIYSNEERPSGVPDRFSGSKSGTSASLAISGLRSEDEADYYCAAWDPSLYGPVFGGGTKLTVL
Result :: 94.2

Query :: Suppose we examine the binder TPP-29384 (antibody, human IgG1, V domains shown) VH: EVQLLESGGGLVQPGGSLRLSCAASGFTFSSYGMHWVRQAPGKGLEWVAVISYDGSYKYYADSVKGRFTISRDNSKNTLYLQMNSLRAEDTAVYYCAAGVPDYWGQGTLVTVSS VL: QSVLTQPPSASGTPGQRVTISCSGSSSNIGSGYDVHWYQQLPGTAPKLLIYSNEERPSGVPDRFSGSKSGTSASLAISGLRSEDEADYYCAAWDPSLSGPVFGGGTKLTVL ; what RGA Efficacy (%) value has been reported?
Result :: 97.2

Query :: So what does the record say about RGA Efficacy (%) for TPP-29400 (antibody, human IgG1, V domains shown) VH: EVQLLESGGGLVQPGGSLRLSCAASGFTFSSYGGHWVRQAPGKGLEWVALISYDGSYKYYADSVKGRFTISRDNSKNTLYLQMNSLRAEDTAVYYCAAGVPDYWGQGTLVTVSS VL: QSVLTQPPSASGTPGQRVTISCSGSSSNIGSDYDVHWYQQLPGTAPKLLIYSNNERPSGVPDRFSGSKSGTSASLAISGLRSEDEADYYCAAWDFSLSGPVFGGGTKLTVL ?
Result :: 87.3

Query :: Name the recorded RGA Efficacy (%) for TPP-29393 (antibody, human IgG1, V domains shown) VH: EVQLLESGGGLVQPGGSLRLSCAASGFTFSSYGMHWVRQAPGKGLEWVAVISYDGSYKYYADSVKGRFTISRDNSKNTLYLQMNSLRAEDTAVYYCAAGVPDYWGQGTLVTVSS VL: QSVLTQPPSASGTPGQRVTISCSGSSSNIGSDLDVHWYQQLPGTAPKLLIYSNEERPSGVPDRFSGSKSGTSASLAISGLRSEDEADYYCAAWDDSLYGPVFGGGTKLTVL .
Result :: 96.2

Query :: Dear colleague, I am looking for the recorded RGA Efficacy (%) of the following binder: TPP-29397 (antibody, human IgG1, V domains shown) VH: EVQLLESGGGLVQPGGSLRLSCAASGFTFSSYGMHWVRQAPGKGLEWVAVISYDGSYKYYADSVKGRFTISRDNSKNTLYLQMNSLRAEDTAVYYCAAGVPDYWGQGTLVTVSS VL: QSVLTQPPSASGTPGQRVTISCSGSSSNIWSGYDVHWYQQLPGTAPKLLIYSNEERPSGVPDRFSGSKSGTSASLAISGLRSEDEADYYCAAWDSSLYGPVFGGGTKLTVL
Result :: 93.8

Query :: Please look up its RGA Efficacy (%): TPP-29382 (antibody, human IgG1, V domains shown) VH: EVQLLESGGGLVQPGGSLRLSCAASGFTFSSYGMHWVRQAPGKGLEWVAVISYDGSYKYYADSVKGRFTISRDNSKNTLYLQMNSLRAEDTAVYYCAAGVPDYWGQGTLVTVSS VL: QSVLTQPPSASGTPGQRVTISCSGSSSNIGSDLDVHWYQQLPGTAPKLLIYSNNERPSGVPDRFSGSKSGTSASLAISGLRSEDEADYYCAAWDFSLYGPVFGGGTKLTVL
Result :: 87.5

Query :: What value of RGA Efficacy (%) has been recorded for this entry: TPP-29392 (antibody, human IgG1, V domains shown) VH: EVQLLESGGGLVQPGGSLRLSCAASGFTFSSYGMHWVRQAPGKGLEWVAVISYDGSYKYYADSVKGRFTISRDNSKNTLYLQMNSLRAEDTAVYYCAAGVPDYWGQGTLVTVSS VL: QSVLTQPPSASGTPGQRVTISCSGSSSNIWSDYDVHWYQQLPGTAPKLLIYSNEERPSGVPDRFSGSKSGTSASLAISGLRSEDEADYYCAAWDSSLSGPVFGGGTKLTVL
Result :: 89.3

Cited source for all entries: patent US20240317847A1
